Molecular target: T1, human GLP-1R (human), P43220
T1 chain: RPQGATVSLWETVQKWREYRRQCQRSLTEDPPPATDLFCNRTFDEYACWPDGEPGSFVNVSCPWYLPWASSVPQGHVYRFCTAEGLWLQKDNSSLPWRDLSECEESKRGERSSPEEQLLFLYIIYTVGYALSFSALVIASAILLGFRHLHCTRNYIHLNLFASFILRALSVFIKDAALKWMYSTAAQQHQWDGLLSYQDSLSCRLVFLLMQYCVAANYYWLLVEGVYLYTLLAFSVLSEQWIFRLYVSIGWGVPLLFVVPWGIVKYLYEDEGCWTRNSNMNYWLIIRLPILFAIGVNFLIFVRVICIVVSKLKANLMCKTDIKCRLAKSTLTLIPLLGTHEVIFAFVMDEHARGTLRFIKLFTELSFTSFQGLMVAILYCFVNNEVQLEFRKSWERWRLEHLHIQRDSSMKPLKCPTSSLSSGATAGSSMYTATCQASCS
Non-standard residues stand in square brackets, D forms with d. Groups on a side chain read outwards from the residue. Primed or numbered codes have the meaning given here. No end group written: not given here. *: point of attachment. C20 diacid = O=C(O)CCCCCCCCCCCCCCCCCCC(=O)*; NMeY = CN[C@@H](Cc1ccc(O)cc1)C(=O)O; αMeF = C[C@](N)(Cc1ccccc1)C(=O)O; Lauroyl = CCCCCCCCCCCC(=O)*; Iva = CC[C@](C)(N)C(=O)O; Aib = CC(C)(N)C(=O)O

{"Binder": "[NMeY][Aib]EGTFISDYSIALDRIAQ[Aib]N[αMeF]VNW[Iva]LAQRPSSGAPPPSR (not fully specified (C-terminus); ends and bridges not checked) [Compound 76]", "Agonist activity (EC50, M)": "> 1e-06 M"}
{"Binder": "Y[Aib]EGTFISDYSK([PEG(2)-Lauroyl])ALDRIAQ[Aib]NFVNWLLAQRPSSGAPPPS (ends and bridges not checked) [Compound 204]", "Agonist activity (EC50, M)": "9.5e-09 M"}
{"Binder": "Y[Aib]EGTFISDYSK([PEG(2)-Lauroyl])ALDRIAQQDFVNWLLAQRPSSGAPPPS (ends and bridges not checked) [Compound 192]", "Agonist activity (EC50, M)": "1.5e-08 M"}
{"Binder": "Y[Aib]EGTFISDYSIALDRK([PEG(2)-C20 diacid])AQQNFVNW[Iva]LAQRPSSGAPPPS (not fully specified (C-terminus); ends and bridges not checked) [Compound 404]", "Agonist activity (EC50, M)": "> 1e-06 M"}
{"Binder": "Y[Aib]EGTFISDYSK([PEG(2)-Lauroyl])ALDRIAQQSFVNWLLAQRPSSGAPPPSR (ends and bridges not checked) [Compound 196]", "Agonist activity (EC50, M)": "4.4e-08 M"}
